system: SK-OV-3 ovarian; assay: NCI-60 one-dose screen, 48 h (100 = growth as untreated, 0 = no growth, -100 = all killed); conditions: 10 µM unless noted
About 83,000 compounds went through this panel and 20% of them were active in at least one assay; those are over-represented in the sample as a whole.
measured-endpoint: growth (%)

> print(dat)
                                   molecule  result.units  measured.number
1  COc1cc(/C=C/C(=O)/C=C/c2cc3ccc(Cl)cc3n(Cc3ccccc3)c2=O)ccc1O             %             37.3
2  COc1cc(NC(=O)Nc2cnc(Nc3ccc(N4CCOCC4)cc3)nc2Oc2ccc(F)cc2)cc(OC)c1             %              102
3  Cc1cccc(C)c1NC(=O)CN(CC(C)C)CC(O)COc1ccccc1 (centres undefined)             %             90.1
4  C=C1C(=O)O[C@H]2[C@H]1CC/C(COC(=O)NCC(=O)Nc1ccc(OC)c(C(N)=O)c1O)=C\CC[C@@]1(C)O[C@@H]21             %              100
5  COc1ccc(-n2cc(COc3ccc4c5ccnc(C)c5n(CC(C)C)c4c3)nn2)cc1             %             56.7
6  N#Cc1ccc(N2Cc3cc(Cl)ccc3OC3=C2C(=O)N(Cc2ccccc2)C3=O)cc1             %             94.2
7  COC(=O)c1ccc(NC(=O)CSc2nc(-c3ccc(F)cc3)nc3ccccc23)cc1             %             90.9
8  C#CCN1C(=O)c2ccccc2N(CC#C)C12CCN(Cc1cn(CC(=O)Nc3ccccc3C(N)=O)nn1)CC2             %              106
9  NC(=O)c1ccc(C2C3=C(CCCC3=O)OC3=C2C(=O)c2ccccc2C3=O)cc1 (centres undefined)             %              104
